Each recorded value in this set is attributed to patent US20240374598A1.

System: recombinant NL4-3 virus (nef section replaced with Renilla luciferase gene) in MT-2 cells
Experiment: HIV cell culture assay (antiviral activity, luciferase readout)
Assay type: cell-based
Settings: NL43, MT-2 cells infected for 4-5 days with recombinant NL4-3 Renilla luciferase virus
pEC50: −log10 of the molar value.
pEC50 overview

>  <smiles-str>
O=C(Cn1nc(C(F)F)c2c1C(F)(F)[C@@H]1C[C@H]21)N[C@@H](Cc1cc(F)cc(F)c1)c1nc2cc(CCC(F)(F)F)ccc2c(=O)n1-c1ccc(Cl)c2c(NS(=O)(=O)C3CC3)nn(CC(F)F)c12

>  <pEC50>
9.81

$$$$
>  <smiles-str>
CS(=O)(=O)Nc1nn(CC(F)F)c2c(-n3c([C@H](Cc4cc(F)cc(F)c4)NC(=O)Cn4nc(C(F)F)c5c4C(F)(F)[C@@H]4C[C@H]54)nc4cc(CCC(F)(F)F)ccc4c3=O)ccc(Cl)c12

>  <pEC50>
10.03

$$$$
>  <smiles-str>
O=C(Cn1nc(C(F)F)c2c1C(F)(F)[C@@H]1C[C@H]21)N[C@@H](Cc1cc(F)cc(F)c1)c1nc2cc(C3CC3)ccc2c(=O)n1-c1ccc(Cl)c2c(NS(=O)(=O)C3CC3)nn(CC(F)F)c12

>  <pEC50>
10.34

$$$$
>  <smiles-str>
COc1ccc2c(=O)n(-c3ccc(Cl)c4c(NS(C)(=O)=O)nn(C)c34)c([C@H](Cc3cc(F)cc(F)c3)NC(=O)Cn3ccc(C(C)C)n3)nc2c1

>  <pEC50>
9.12

$$$$
>  <smiles-str>
COc1ccc2c(=O)n(-c3ccc(Cl)c4c(NS(C)(=O)=O)nn(C)c34)c([C@H](Cc3cc(F)cc(F)c3)NC(=O)Cn3ccc(C(C)C)n3)nc2n1

>  <pEC50>
9.63

$$$$
>  <smiles-str>
CC(C)[C@H](C)Oc1ccc2c(=O)n(-c3ccc(Cl)c4c(NS(C)(=O)=O)nn(C)c34)c([C@H](Cc3cc(F)cc(F)c3)NC(=O)Cn3nc(C(F)F)c4c3C(F)(F)[C@@H]3C[C@H]43)nc2c1

>  <pEC50>
9.62

$$$$
>  <smiles-str>
Cn1nc(NS(C)(=O)=O)c2c(Cl)ccc(-n3c([C@H](Cc4cc(F)cc(F)c4)NC(=O)Cn4nc(C(F)F)c5c4C(F)(F)[C@@H]4C[C@H]54)nc4cc(C(F)(F)C(C)(C)C)ccc4c3=O)c21

>  <pEC50>
9.94

$$$$
>  <smiles-str>
Cn1nc(NS(C)(=O)=O)c2c(Cl)ccc(-n3c([C@H](Cc4cc(F)cc(F)c4)NC(=O)Cn4nc(C(F)F)c5c4C(F)(F)[C@@H]4C[C@H]54)nc4cc(O)ccc4c3=O)c21

>  <pEC50>
9.56

$$$$
>  <smiles-str>
Cn1nc(NS(C)(=O)=O)c2c(Cl)ccc(-n3c([C@H](Cc4cc(F)cc(F)c4)NC(=O)Cn4nc(C(F)(F)F)c5c4C(F)(F)[C@@H]4C[C@H]54)nc4cc(C(C)(C)C)ccc4c3=O)c21

>  <pEC50>
9.35

$$$$

----------
CC50 at 4 day overview
Assay: Compound cytotoxicity, XTT-based colorimetric assay
Type: cell-based
Conditions: human; uninfected MT2 cells, day 4, XTT assay

>  <molecule>
CC(C)Cc1ccc2c(=O)n(-c3ccc(Cl)c4c(NS(C)(=O)=O)nn(C)c34)c([C@H](Cc3cc(F)cc(F)c3)NC(=O)Cn3nc(C(F)F)c4c3C(F)(F)[C@@H]3C[C@H]43)nc2c1

>  <CC50 at 4 day>
> 1000 nM

$$$$
>  <molecule>
COc1nc2nc([C@H](Cc3cc(F)cc(F)c3)NC(=O)Cn3nc(C(F)F)c4c3C(F)(F)C3CC43)n(-c3ccc(Cl)c4c(NS(C)(=O)=O)nn(C)c34)c(=O)c2cc1Cl (stereo in doubt)

>  <CC50 at 4 day>
> 1000 nM

$$$$
>  <molecule>
CC(C)Oc1ccc2c(=O)n(-c3ccc(Cl)c4c(NS(C)(=O)=O)nn(C)c34)c([C@H](Cc3cc(F)cc(F)c3)NC(=O)Cn3nc(C(F)F)c4c3C(F)(F)C3CC43)nc2n1 (stereo in doubt)

>  <CC50 at 4 day>
> 1000 nM

$$$$
>  <molecule>
CC(C)(C)c1ccc2c(=O)n(-c3ccc(Cl)c4c(NS(C)(=O)=O)nn(CC(F)(F)F)c34)c([C@H](Cc3cc(F)cc(F)c3)NC(=O)Cn3nc(C(F)F)c4c3C(F)(F)[C@@H]3C[C@H]43)nc2c1

>  <CC50 at 4 day>
> 1000 nM

$$$$
>  <molecule>
COc1ccc2c(=O)n(-c3ccc(Cl)c4c(NS(C)(=O)=O)nn(C)c34)c([C@H](Cc3cc(F)cc(F)c3)NC(=O)Cn3ccc(C4CC4)n3)nc2n1

>  <CC50 at 4 day>
> 1000 nM

$$$$
